assay: Inhibition of NM23-H2 binding to 5'-FAM labeled c-Myc Pu27 G-quadruplex DNA (unknown origin) preincubated for 1 hr followed by NM23-H2 addition by electrophoretic mobility shift assay
measured-property: pIC50
Would you please state pIC50, meaning minus log10 of the concentration in mol/L, as a bare number?

// query pIC50 value for entry `CN(C)CCCNc1c2ccccc2nc2c1oc1ccc(OCC3CCN(C)CC3)cc12`
5.81

====

Measured ΔTm, listed per entry for reference.
assay: Stabilization of 5'-FAM/3'-TAMRA labeled c-Myc Pu22 G-quadruplex DNA (unknown origin) assessed as change in melting temperature at 2 uM by FRET assay

• C[n+]1c2ccccc2c(NCCCN2CCOCC2)c2oc3ccc(OCC(=O)NCCCN4CCOCC4)cc3c21 = 36.1 °C
• CN(C)CCNC(=O)COc1ccc2oc3c(NCCN(C)C)c4ccccc4[n+](C)c3c2c1 = 13.5 to 36.7 °C
• CN(C)CCCNc1c2ccccc2nc2c1oc1ccc(OCCCN(C)C)cc12 = 22.1 to 25.2 °C
• CN(C)CCCNC(=O)COc1ccc2oc3c(NCCCN(C)C)c4ccccc4nc3c2c1 = 21.2 °C
• CN1CCN(CCNC(=O)COc2ccc3oc4c(NCCN5CCN(C)CC5)c5ccccc5[n+](C)c4c3c2)CC1 = 13.5 to 36.7 °C

// query ΔTm value for entry `C[n+]1c2ccccc2c(NCCCN2CCCCC2)c2oc3ccc(OCC(=O)NCCCN4CCCCC4)cc3c21`
35.2 °C

// query ΔTm value for entry `CCN(CC)CCNC(=O)COc1ccc2oc3c(NCCN(CC)CC)c4ccccc4nc3c2c1`
13.5 to 36.7 °C

// query ΔTm value for entry `CN(C)CCCNc1c2ccccc2nc2c1oc1cc(OCCN(C)C)ccc12`
22.1 to 25.2 °C

// query ΔTm value for entry `CN(C)CCCNc1c2ccccc2nc2c1oc1cc(OCCCN(C)C)ccc12`
22.1 to 25.2 °C

====

Measured pKd, listed per entry for reference.
assay: Binding affinity to 5'-FAM labeled c-Myc Pu27 G-quadruplex DNA (unknown origin) in presence of K+ ions by MST analysis
pKd: −log10 of the molar value.

Previously resolved entries follow.
• CN(C)CCCNc1c2ccccc2nc2c1oc1cc(OCCCN(C)C)ccc12 = 5.31 to 5.89
• CN(C)CCCNc1c2ccccc2nc2c1oc1ccc(OCC3CCN(C)CC3)cc12 = 5.89

// query pKd value for entry `CCN(CC)CCNC(=O)COc1ccc2oc3c(NCCN(CC)CC)c4ccccc4[n+](C)c3c2c1`
6.10

// query pKd value for entry `CN(C)CCCNc1c2ccccc2nc2c1oc1c(OCCN(C)C)cccc12`
5.31 to 5.89

// query pKd value for entry `CN(C)CCCNc1c2ccccc2nc2c1oc1c(OCCCN(C)C)cccc12`
5.31 to 5.89

// query pKd value for entry `CN(C)CCCNc1c2ccccc2nc2c1[nH]c1ccccc12`
5.11

// query pKd value for entry `CN(C)CCCNc1c2ccccc2nc2c1oc1cc(OCCN(C)C)ccc12`
5.31 to 5.89

====

experiment: Stabilization of 5'-FAM/3'-TAMRA labeled c-Myc Pu22 G-quadruplex DNA (unknown origin) assessed as change in melting temperature at 2 uM by FRET assay
Measured ΔTm, listed per entry for reference.

Previously resolved entries follow.
• C[n+]1c2ccccc2c(NCCN2CCOCC2)c2oc3ccc(OCC(=O)NCCN4CCOCC4)cc3c21 = 28.4 °C
• CN(C)CCCNc1c2ccccc2[n+](C)c2c1oc1ccc(OCC3CC[N+](C)(C)CC3)cc12 = 33.1 to 36.7 °C
• CN(C)CCCNc1c2ccccc2[n+](C)c2c1oc1ccc(OCCC[N+](C)(C)C)cc12 = 33.1 to 36.7 °C
• CN(C)CCCNc1c2ccccc2[n+](C)c2c1oc1ccc(OCC[N+](C)(C)C)cc12 = 33.1 to 36.7 °C
• CCN(CC)CCCNC(=O)COc1ccc2oc3c(NCCCN(CC)CC)c4ccccc4nc3c2c1 = 13.5 to 36.7 °C

// query ΔTm value for entry `CN(C)CCNc1c2ccccc2nc2c1oc1ccc(OCCN(C)C)cc12`
13.5 to 36.7 °C

// query ΔTm value for entry `O=C(COc1ccc2oc3c(NCCN4CCCCC4)c4ccccc4nc3c2c1)NCCN1CCCCC1`
13.5 to 36.7 °C

// query ΔTm value for entry `CN(C)CCCNc1c2ccccc2nc2c1oc1ccc(OCCN(C)C)cc12`
22.1 to 25.2 °C

// query ΔTm value for entry `CN(C)CCCCNC(=O)COc1ccc2oc3c(NCCCCN(C)C)c4ccccc4[n+](C)c3c2c1`
13.5 to 36.7 °C

====

assay: Stabilization of 5'-FAM/3'-TAMRA labeled c-Myc Pu22 G-quadruplex DNA (unknown origin) assessed as change in melting temperature at 2 uM by FRET assay
measured-property: ΔTm (°C)

Previously resolved entries follow.
* CN(C)CCCNc1c2ccccc2nc2c1oc1ccc(OCC3CCN(C)CC3)cc12 | 26.6
* C[n+]1c2ccccc2c(NCCN2CCCCC2)c2oc3ccc(OCC(=O)NCCN4CCCCC4)cc3c21 | 30
* CN(C)CCCNc1c2ccccc2nc2c1oc1c(OCCN(C)C)cccc12 | 18.6

a = CN(C)CCCNC(=O)COc1ccc2oc3c(NCCCN(C)C)c4ccccc4[n+](C)c3c2c1
b = CN(C)CCCNc1c2ccccc2nc2c1oc1c(OCCCN(C)C)cccc12
Pick one, a or b : lowest reported ΔTm. Kindly state the label of the option you pick.
b
(b: 13.5 °C, a: 35.6 °C)

====

experiment: Selectivity ratio of Kd for 5'-FAM labeled duplex DNA (unknown origin) to Kd for 5'-FAM labeled c-Myc Pu27 G-quadruplex DNA (unknown origin)
measured-property: Selectivity ratio

Previously resolved entries follow.
• O=C(COc1ccc2oc3c(NCCN4CCCCC4)c4ccccc4nc3c2c1)NCCN1CCCCC1 = 2.9 to 9.7
• CN(C)CCCNC(=O)COc1ccc2oc3c(NCCCN(C)C)c4ccccc4nc3c2c1 = 2.9 to 9.7
• CN(C)CCCNc1c2ccccc2nc2c1oc1cc(OCCN(C)C)ccc12 = 2.5 to 10.1
• CN(C)CCNc1c2ccccc2nc2c1oc1ccc(OCCN(C)C)cc12 = 2.5 to 10.1
• CN(C)CCCNc1c2ccccc2nc2c1oc1ccc(OCCCN(C)C)cc12 = 2.5 to 10.1

// query Selectivity ratio value for entry `CCN(CC)CCNC(=O)COc1ccc2oc3c(NCCN(CC)CC)c4ccccc4nc3c2c1`
2.9 to 9.7

// query Selectivity ratio value for entry `CN(C)CCCNc1c2ccccc2nc2c1[nH]c1ccccc12`
1.02

// query Selectivity ratio value for entry `CN(C)CCCNc1c2ccccc2nc2c1oc1cc(OCCCN(C)C)ccc12`
2.5 to 10.1

// query Selectivity ratio value for entry `CN(C)CCCNc1c2ccccc2nc2c1oc1ccc(OCC3CCN(C)CC3)cc12`
8

// query Selectivity ratio value for entry `CN(C)CCCNc1c2ccccc2nc2c1oc1ccc(OCCN(C)C)cc12`
2.5 to 10.1

// query Selectivity ratio value for entry `CN(C)CCCNc1c2ccccc2nc2c1oc1c(OCCN(C)C)cccc12`
2.5 to 10.1

// query Selectivity ratio value for entry `CN(C)CCNC(=O)COc1ccc2oc3c(NCCN(C)C)c4ccccc4nc3c2c1`
2.9 to 9.7

// query Selectivity ratio value for entry `CCN(CC)CCCNC(=O)COc1ccc2oc3c(NCCCN(CC)CC)c4ccccc4nc3c2c1`
2.9 to 9.7

// query Selectivity ratio value for entry `CN(C)CCCNc1c2ccccc2nc2c1oc1c(OCCCN(C)C)cccc12`
2.5 to 10.1

====

assay: Binding affinity to 5'-FAM labeled c-Myc Pu27 G-quadruplex DNA (unknown origin) in presence of K+ ions by MST analysis
Measured Kd, listed per entry for reference.

• CCN(CC)CCCNC(=O)COc1ccc2oc3c(NCCCN(CC)CC)c4ccccc4[n+](C)c3c2c1 = 700 nM
• CN(C)CCCNc1c2ccccc2nc2c1oc1ccc(OCCN(C)C)cc12 = 1300 to 4900 nM
• CN(C)CCNc1c2ccccc2nc2c1oc1ccc(OCCN(C)C)cc12 = 1300 to 4900 nM

Let's switch to this compound now.
// query Kd value for entry `CN(C)CCCNc1c2ccccc2nc2c1oc1ccc(OCCCN(C)C)cc12`
1300 to 4900 nM

====

Measured ΔTm, listed per entry for reference.
assay: Stabilization of 5'-FAM/3'-TAMRA labeled c-Myc Pu22 G-quadruplex DNA (unknown origin) assessed as change in melting temperature at 2 uM by FRET assay

Previously resolved entries follow.
• CCN(CC)CCNC(=O)COc1ccc2oc3c(NCCN(CC)CC)c4ccccc4[n+](C)c3c2c1 = 13.5 to 36.7 °C
• CN(C)CCNC(=O)COc1ccc2oc3c(NCCN(C)C)c4ccccc4nc3c2c1 = 13.5 to 36.7 °C
• CN(C)CCNc1c2ccccc2[n+](C)c2c1oc1ccc(OCC[N+](C)(C)C)cc12 = 33.1 to 36.7 °C

Let's switch to this compound now.
// query ΔTm value for entry `CCN(CC)CCCNC(=O)COc1ccc2oc3c(NCCCN(CC)CC)c4ccccc4[n+](C)c3c2c1`
13.5 to 36.7 °C

Measured values drawn from ChEMBL document CHEMBL4011629 for this set.
